- Tested on: NCI-H522 lung
- test-summary: NCI tumour cell line growth inhibition, 48 h
# label = yes (1) if TGI >= 4 µM else no (0)

Could you verify whether the entry CCOC(=O)C1Cc2c(cc3c4c(cccc24)N(C(C)=O)C3)N(C)C1 (stereo not given) shows TGI of no less than 4 µM?
no (0)

Could you verify whether the entry "Cc1cc(C)n(CC(Cn2nc(C)cc2C)=C(/C(Cl)=C(/Cl)Nc2ccc([N+](=O)[O-])cc2)[N+](=O)[O-])n1" shows TGI of no less than 4 µM?
yes (1)

Could you verify whether the entry "COc1cc(NS(C)(=O)=O)ccc1Nc1cc[nH]c2ccc3nccc3c12" shows TGI of no less than 4 µM?
yes (1)

Could you verify whether the entry "Cc1ccc(S(=O)(=O)NC(=O)NCCc2cnc[nH]2)cc1" shows TGI of no less than 4 µM?
yes (1)

Could you verify whether the entry "COc1ccc(/C=C/C(=O)c2cc(OC)c(OC)c(OC)c2)cc1OCC(=O)Nc1nc2ccc(OC(F)(F)F)cc2s1" shows TGI of no less than 4 µM?
no (0)

Could you verify whether the entry COC(=O)C(C(=O)C(=O)Nc1c(C)cccc1C)c1cnc2ccccc2n1 (stereo not given) shows TGI of no less than 4 µM?
yes (1)

Could you verify whether the entry "O=c1[nH]c(Cc2ccccc2)nc2c1sc1nc3ccccc3n12" shows TGI of no less than 4 µM?
yes (1)

Could you verify whether the entry "CC1=Nc2ccccc2S/C1=C(/C)NNS(=O)(=O)c1ccc(C)cc1" shows TGI of no less than 4 µM?
yes (1)

Could you verify whether the entry "Cc1cc(S(=O)(=O)Nc2nc3ccccc3o2)c(SCc2ccccc2)cc1Cl" shows TGI of no less than 4 µM?
yes (1)
